- tested-on: Mast/stem cell growth factor receptor Kit (Homo sapiens, UniProt P10721)
- Sequence (P10721 whole entry): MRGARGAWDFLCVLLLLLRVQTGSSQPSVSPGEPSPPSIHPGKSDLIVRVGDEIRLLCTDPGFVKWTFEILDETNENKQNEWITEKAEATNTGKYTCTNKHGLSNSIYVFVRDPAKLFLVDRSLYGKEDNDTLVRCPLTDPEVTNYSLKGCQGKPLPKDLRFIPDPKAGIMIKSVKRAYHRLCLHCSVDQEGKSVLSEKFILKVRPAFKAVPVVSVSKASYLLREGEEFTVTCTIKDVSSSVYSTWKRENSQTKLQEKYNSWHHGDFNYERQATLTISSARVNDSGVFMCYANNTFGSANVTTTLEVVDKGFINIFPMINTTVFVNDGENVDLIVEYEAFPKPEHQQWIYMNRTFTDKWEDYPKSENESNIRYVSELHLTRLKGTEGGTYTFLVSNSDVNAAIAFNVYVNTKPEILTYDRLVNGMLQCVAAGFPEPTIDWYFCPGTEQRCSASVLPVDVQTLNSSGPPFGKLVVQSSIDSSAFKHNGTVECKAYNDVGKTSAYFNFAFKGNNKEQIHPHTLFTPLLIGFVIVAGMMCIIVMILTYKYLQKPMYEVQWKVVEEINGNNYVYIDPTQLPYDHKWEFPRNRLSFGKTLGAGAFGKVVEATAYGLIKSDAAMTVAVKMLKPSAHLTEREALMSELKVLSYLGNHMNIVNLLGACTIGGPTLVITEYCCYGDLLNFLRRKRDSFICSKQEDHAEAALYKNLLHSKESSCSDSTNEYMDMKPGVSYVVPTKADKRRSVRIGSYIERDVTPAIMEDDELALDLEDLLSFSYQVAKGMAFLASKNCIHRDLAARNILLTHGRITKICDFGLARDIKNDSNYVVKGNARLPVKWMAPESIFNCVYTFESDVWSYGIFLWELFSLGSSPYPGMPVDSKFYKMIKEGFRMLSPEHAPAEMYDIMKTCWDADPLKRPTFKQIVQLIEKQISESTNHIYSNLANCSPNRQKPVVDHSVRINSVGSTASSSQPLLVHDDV
recorded-metric: Kd (nM)
Please give a number only; it is taken to be in nM.

Documented Kd of COc1cc(-c2cnc3c(N4CCOCC4)snc3c2)cc(OC)c1OC : 29

Recorded values, source ChEMBL document CHEMBL3425437.
